Test system: M14 melanoma
Assay explanation: NCI-60 one-dose screen, 48 h
Measurement conditions: 10 µM unless noted
About 83,000 compounds went through this panel and 20% of them were active in at least one assay; those are over-represented in the sample as a whole. Calls of active or inactive are those of the source. Rule for the calls: active = growth percent below 10; inactive = the rest.
Bench note: report the call from active, inactive

-- ask Could you check what this test reported for OC(c1ccc(F)c(C(F)(F)F)c1)c1cnccc1NC1CCCCC1 (centres undefined) ?
-- reply inactive

-- ask Could you check what this test reported for Cn1c2ccccc2c2c3c(c4c5ccccc5n(C)c4c21)C(=O)OC3 ?
-- reply inactive

-- ask Could you check what this test reported for C=CCN1C(=O)/C(=C/C(=O)OC)S/C1=N\NC(=O)c1cc2ccc1/C=C\c1ccc(cc1)/C=C\2 ?
-- reply inactive

-- ask Could you check what this test reported for COc1cc(CC(=O)c2ccc(O)c(OC)c2)ccc1O ?
-- reply inactive

-- ask Could you check what this test reported for C#CCNC(=O)[C@]1(C)CC[C@]2(C)CC[C@@H]3C(=CC[C@H]4[C@@]3(C)CC[C@H]3C(C)(C)C(=O)CC[C@]43C)[C@@H]2C1 ?
-- reply inactive

-- ask Could you check what this test reported for CC1(C)CC(O)CCCCCCOc2c(CN)cccc2NC(=O)c2nc(cnc2N)-c2ccc(cc2)S1(=O)=O (centres undefined) ?
-- reply active

-- ask Could you check what this test reported for NC(=S)N1N=C(c2ccccc2)CC1c1cn(-c2ccccc2)nc1-c1ccc(OCc2ccccc2)cc1 (centres undefined) ?
-- reply inactive

-- ask Could you check what this test reported for COc1ccc(CC(C)=C(c2ccc(OCCN3CCCCCC3)cc2)c2ccc(OCCN3CCCCCC3)cc2)cc1 ?
-- reply active

-- ask Could you check what this test reported for O=[N+]([O-])c1ccc(NC(=S)N/N=C/c2cc3ccccc3n3nnnc23)cc1 ?
-- reply inactive

---

Tested on: 786-0 renal
Assay explanation: NCI-60 one-dose screen, 48 h (100 = growth as untreated, 0 = no growth, -100 = all killed)
Measurement conditions: 10 µM unless noted
About 83,000 compounds went through this panel and 20% of them were active in at least one assay; those are over-represented in the sample as a whole.
Is growth at least 80%? Then 1. If not, 0.

-- ask growth >= 80% for N#CC(C#N)=Cc1cc2ccccc2nc1Oc1ccc(C(F)(F)F)cc1 ?
-- reply 1

-- ask growth >= 80% for Fc1ccc(-c2cn3c(nc4ccccc43)c(-c3ccccc3)n2)cc1 ?
-- reply 1

-- ask growth >= 80% for COc1ccc(C(=O)/C=C/c2cc3ccccc3n3nnnc23)cc1 ?
-- reply 1

-- ask growth >= 80% for c1ccc2cc(Cn3c(-c4cccc5ccccc45)[n+](Cc4ccc5ccccc5c4)c4c5ccccc5c5ccccc5c43)ccc2c1 ?
-- reply 0

-- ask growth >= 80% for COc1ccccc1/C(C)=N/NC(=O)CSc1nc2ccccc2c(=O)n1Cc1ccc(S(N)(=O)=O)cc1 ?
-- reply 1

-- ask growth >= 80% for COc1ccc(C(=O)Cn2c(C(=O)c3ccccc3)nc3ccccc32)cc1 ?
-- reply 0

-- ask growth >= 80% for O=C(Nc1ccc(-c2ccc3c(c2)NC(=O)/C3=C\c2ccc[nH]2)cc1)NC1CC1 ?
-- reply 1

-- ask growth >= 80% for CC1(C)NCCC[C@]2(C)[C@H]3CC[C@@H]4[C@H]5[C@H](C(=O)/C=C/c6ccco6)CC[C@]5(CO)CC[C@@]4(C)[C@]3(C)CC[C@@H]12 ?
-- reply 0

-- ask growth >= 80% for COc1ccc(/C=C/C(=O)Nc2cc(/C=C\c3cc(OC)c(OC)c(OC)c3)cc(OC)c2OC)cc1OC ?
-- reply 0

-- ask growth >= 80% for COc1ccc(/C=C2\Oc3cc(OCCCN4CCCCC4)ccc3C2=O)cc1OC ?
-- reply 1

-- ask growth >= 80% for C=CCN1C(=O)/C(=C/C(=O)OC)S/C1=N\NC(=O)c1cc2ccc1/C=C\c1ccc(cc1)/C=C\2 ?
-- reply 1

-- ask growth >= 80% for O=[N+]([O-])c1cc(Br)c2cccc3c2c1CC3 ?
-- reply 1

-- ask growth >= 80% for N#CC(C(=O)/C(=N/NC(=O)c1ccccc1O)C(C#N)c1ccccc1)c1ccccc1 (stereo not drawn) ?
-- reply 1

-- ask growth >= 80% for C=CC(=O)N[C@@H](/C=C/C(=O)OCC)Cc1ccc(-c2cc(Cl)cc(Cl)c2)cc1 ?
-- reply 0

-- ask growth >= 80% for O=S(=O)(Nc1ccc(-n2cnc3cc(-c4ccc(O)cc4)ccc32)cc1)c1ccccc1 ?
-- reply 1

-- ask growth >= 80% for O=C(/C=C/c1ccc(F)cc1)c1ccc(NC(=O)N2CCN(c3cc4c(cc3F)c(=O)c(C(=O)O)cn4C3CC3)CC2)cc1 ?
-- reply 1
